- Tested on: Streptococcus pneumoniae
- METHOD_DESCRIPTION: Antimicrobial activity against penicillin-resistant Streptococcus pneumoniae clinical isolates assessed as resistant isolates by broth microdilution method
- Type: functional
READOUT: Percent of isolates resistant (%)
Supply the numeric figure in %, leaving out any unit text.

The following molecules have reported results that may help.
Challenge: Requested field: Percent of isolates resistant. Item: CC[C@H]1OC(=O)[C@H](C)[C@@H](O[C@H]2C[C@@](C)(OC)[C@@H](O)[C@H](C)O2)[C@H](C)[C@@H](O[C@@H]2O[C@H](C)C[C@H](N(C)C)[C@H]2O)[C@](C)(O)C[C@@H](C)C(=O)[C@H](C)[C@@H](O)[C@]1(C)O [ERYTHROMYCIN]
Response given: 84.5

Challenge: Also need CO/N=C(\C(=O)N[C@@H]1C(=O)N2C(C(=O)O)=C(CSc3nc(=O)c(O)nn3C)CS[C@H]12)c1csc(N)n1 [CEFTRIAXONE] , thanks.
Response given: 7.4

Challenge: Can you check CO/N=C(\C(=O)N[C@@H]1C(=O)N2C(C(=O)OC(C)OC(C)=O)=C(COC(N)=O)CS[C@H]12)c1ccco1 (stereo partly specified) [CEFUROXIME AXETIL] next?
Response given: 99.3

Challenge: Can you handle CCC[C@@H]1C[C@@H](C(=O)N[C@@H]([C@H]2O[C@H](SC)[C@H](O)[C@@H](O)[C@H]2O)[C@H](C)Cl)N(C)C1 [CLINDAMYCIN] next?
Response given: 54.1

Challenge: Please give the result for CC[C@H]1OC(=O)[C@H](C)C(=O)[C@H](C)[C@@H](O[C@@H]2O[C@H](C)C[C@H](N(C)C)[C@H]2O)[C@](C)(OC)C[C@@H](C)C(=O)[C@H](C)[C@H]2N(CCCCn3cnc(-c4cccnc4)c3)C(=O)O[C@]12C [TELITHROMYCIN] too.
Response given: 0

***
Challenge: What does the data say about its Percent of isolates resistant? Entry: C[C@H]1COc2c(N3CCN(C)CC3)c(F)cc3c(=O)c(C(=O)O)cn1c23.C[C@H]1COc2c(N3CCN(C)CC3)c(F)cc3c(=O)c(C(=O)O)cn1c23.O [LEVOFLOXACIN]
Response given: 0.7

* * *

- System: Streptococcus agalactiae
- METHOD_DESCRIPTION: Antimicrobial activity against erythromycin-susceptible Streptococcus agalactiae clinical isolates assessed as resistant isolates by broth microdilution method
- Assay type: functional
READOUT: Activity (%)
Please give a number only; it is taken to be in %.

Challenge: Report Activity for `CN[C@H](CC(C)C)C(=O)N[C@H]1C(=O)N[C@@H](CC(N)=O)C(=O)N[C@H]2C(=O)N[C@H]3C(=O)N[C@H](C(=O)N[C@H](C(=O)O)c4cc(O)cc(O)c4-c4cc3ccc4O)[C@H](O)c3ccc(c(Cl)c3)Oc3cc2cc(c3O[C@@H]2O[C@H](CO)[C@@H](O)[C@H](O)[C@H]2O[C@H]2C[C@](C)(N)[C@H](O)[C@H](C)O2)Oc2ccc(cc2Cl)[C@H]1O` tested on Streptococcus agalactiae.
Response given: 0

Challenge: Try `CCC[C@@H]1C[C@@H](C(=O)N[C@@H]([C@H]2O[C@H](SC)[C@H](O)[C@@H](O)[C@H]2O)[C@H](C)Cl)N(C)C1` next.
Response given: 1

Challenge: Queued: `CC1(C)S[C@@H]2[C@H](NC(=O)Cc3ccccc3)C(=O)N2[C@H]1C(=O)O`
Response given: 0

---
Challenge: Hello, I am looking for reported Activity with Streptococcus agalactiae for `C[C@H]1COc2c(N3CCN(C)CC3)c(F)cc3c(=O)c(C(=O)O)cn1c23.C[C@H]1COc2c(N3CCN(C)CC3)c(F)cc3c(=O)c(C(=O)O)cn1c23.O` . Could you help?
Response given: 1.4
